Observed Kd, system FKBP51 (Homo sapiens (Human), UniProt Q13451).
metric: Kd

compound="COCCOCCS(=O)(=O)NC1CC2CCC(C)C(O)(O2)C(=O)C(=O)N2CCCCC2C(=O)OC(C(C)CC2CCC(OCCO)C(OC)C2)CC(=O)C(C)C=C(C)C(O)C(OC)C(=O)C(C)CC(C)C=CC=CC=C1C (mixture of isomers) [Compound 7]" metric=Kd reported_value="10 to 100 nM"
compound="COC1CC(CC(C)C2CC(=O)C(C)C=C(C)C(O)C(OC)C(=O)C(C)CC(C)C=CC=CC=C(C)C(OCC3CC(F)(F)C3)CC3CCC(C)C(O)(O3)C(=O)C(=O)N3CCCCC3C(=O)O2)CCC1O (stereo not shown) [Compound 41]" metric=Kd reported_value="> 100 nM"
compound="CO[C@@H]1C[C@H](C[C@@H](C)[C@@H]2CC(=O)[C@H](C)/C=C(\\C)[C@@H](O)[C@@H](OC)C(=O)[C@H](C)C[C@H](C)/C=C/C=C/C=C(\\C)[C@@H](OCCC3CCO3)C[C@@H]3CC[C@@H](C)[C@@](O)(O3)C(=O)C(=O)N3CCCC[C@H]3C(=O)O2)CC[C@H]1O (stereo partly shown) [Compound 28]" metric=Kd reported_value="10 to 100 nM"
compound="COC1CC(CC(C)C2CC(=O)C(C)C=C(C)C(O)C(OC)C(=O)C(C)CC(C)C=CC=CC=C(C)C(OCC3CCC3)CC3CCC(C)C(O)(O3)C(=O)C(=O)N3CCCCC3C(=O)O2)CCC1O (stereo not shown) [Compound 36]" metric=Kd reported_value="> 100 nM"
compound="CO[C@H]1C[C@@H]2CC[C@@H](C)[C@@](O)(O2)C(=O)C(=O)N2CCCC[C@H]2C(=O)O[C@H]([C@H](C)C[C@@H]2CC[C@@H](O)[C@H](OC)C2)CC(=O)[C@H](C)/C=C(\\C)[C@@H](O)[C@@H](OC)C(=O)[C@H](C)C[C@H](C)/C=C/C=C/C=C/1C [Rapamycin, reference compound]" metric=Kd reported_value="< 10 nM"
compound="COCCOC1CC2CCC(C)C(O)(O2)C(=O)C(=O)N2CCCCC2C(=O)OC(C(C)CC2CCC(OCC(=O)O)C(OC)C2)CC(=O)C(C)C=C(C)C(O)C(OC)C(=O)C(C)CC(C)C=CC=CC=C1C (stereo not shown) [Compound 57]" metric=Kd reported_value="10 to 100 nM"
compound="CO[C@@H]1C[C@H](C[C@@H](C)[C@@H]2CC(=O)[C@H](C)/C=C(\\C)[C@@H](O)[C@@H](OC)C(=O)[C@H](C)C[C@H](C)/C=C/C=C/C=C(\\C)[C@@H](OCCC3CCOC3)C[C@@H]3CC[C@@H](C)[C@@](O)(O3)C(=O)C(=O)N3CCCC[C@H]3C(=O)O2)CC[C@H]1O (stereo partly shown) [Compound 32]" metric=Kd reported_value="10 to 100 nM"

====

Observed Kd, system FKBP51 (Homo sapiens (Human)).
metric: Kd

compound="COC1CC(CC(C)C2CC(=O)C(C)C=C(C)C(O)C(OC)C(=O)C(C)CC(C)C=CC=CC=C(C)C(OCC3CCC3)CC3CCC(C)C(O)(O3)C(=O)C(=O)N3CCCCC3C(=O)O2)CCC1OCCO (centres unmarked)" reported_value="> 100 nM"
compound="COC1CC(CC(C)C2CC(=O)C(C)C=C(C)C(O)C(OC)C(=O)C(C)CC(C)C=CC=CC=C(C)C(OC3CC3)CC3CCC(C)C(O)(O3)C(=O)C(=O)N3CCCCC3C(=O)O2)CCC1OCCO (centres unmarked) [Compound 47]" reported_value="> 100 nM"
compound="CCOC(=O)COC1CCC(CC(C)C2CC(=O)C(C)C=C(C)C(O)C(OC)C(=O)C(C)CC(C)C=CC=CC=C(C)C(OCC3CC3)CC3CCC(C)C(O)(O3)C(=O)C(=O)N3CCCCC3C(=O)O2)CC1OC (centres unmarked) [Compound 51]" reported_value="> 100 nM"
compound="COC1CC(CC(C)C2CC(=O)C(C)C=C(C)C(O)C(OC)C(=O)C(C)CC(C)C=CC=CC=C(C)C(OC3CCOCC3)CC3CCC(C)C(O)(O3)C(=O)C(=O)N3CCCCC3C(=O)O2)CCC1O (centres unmarked)" reported_value="10 to 100 nM"
compound="CO[C@@H]1C[C@H](C[C@@H](C)[C@@H]2CC(=O)[C@H](C)/C=C(\\C)[C@@H](O)[C@@H](OC)C(=O)[C@H](C)C[C@H](C)/C=C/C=C/C=C(\\C)[C@@H](OCC3CCS(=O)(=O)C3)C[C@@H]3CC[C@@H](C)[C@@](O)(O3)C(=O)C(=O)N3CCCC[C@H]3C(=O)O2)CC[C@H]1O (some centres unmarked)" reported_value="10 to 100 nM"
compound="COC1CC(CC(C)C2CC(=O)C(C)C=C(C)C(O)C(OC)C(=O)C(C)CC(C)C=CC=CC=C(C)C(OCC3CCC3)CC3CCC(C)C(O)(O3)C(=O)C(=O)N3CCCCC3C(=O)O2)CCC1OCCCO (centres unmarked)" reported_value="> 100 nM"
compound=CO[C@@H]1C[C@H](C[C@@H](C)[C@@H]2CC(=O)[C@H](C)/C=C(\C)[C@@H](O)[C@@H](OC)C(=O)[C@H](C)C[C@H](C)/C=C/C=C/C=C(\C)[C@H](NS(=O)(=O)CC3CCCCC3)C[C@@H]3CC[C@@H](C)[C@@](O)(O3)C(=O)C(=O)N3CCCC[C@H]3C(=O)O2)CC[C@H]1O reported_value="> 100 nM"
compound=CO[C@@H]1C[C@H](C[C@@H](C)[C@@H]2CC(=O)[C@H](C)/C=C(\C)[C@@H](O)[C@@H](OC)C(=O)[C@H](C)C[C@H](C)/C=C/C=C/C=C(\C)[C@@H](NS(=O)(=O)CC3CCCCC3)C[C@@H]3CC[C@@H](C)[C@@](O)(O3)C(=O)C(=O)N3CCCC[C@H]3C(=O)O2)CC[C@H]1O reported_value="> 100 nM"

This collection of values is drawn from patent US11603377B2.
